Reference source for all entries: ChEMBL document CHEMBL4257442

# protocol.summary: Selectivity index, ratio of CC50 for mouse J774A.1 cells to IC50 for Leishmania donovani MHOM/IN/80/Dd8 amastigote forms infected in mouse J774A.1 cells
# Assay type: toxicity, cell-based
# condition.set: read-out: Ratio CC50/IC50
quantity: selectivity ratio
Please give only the number in your answer, with no unit.

Guide cases for selectivity ratio, answers given:
compound	selectivity ratio
Clc1ccc(C(c2nnnn2C2CCCCC2)N2CCc3c([nH]c4ccccc34)C2)cc1 (centres undefined)	17
CCCCCCCCCCCCCCCCOP(=O)([O-])OCC[N+](C)(C)C	1.48
COc1ccc(C(c2nnnn2C2CCCCC2)N2CCc3c([nH]c4ccccc34)C2)cc1OC (centres undefined)	13
COc1ccc(C(c2nnnn2C(C)(C)C)N2CCc3c([nH]c4ccccc34)C2)cc1 (centres undefined)	10

Let's switch to this compound now.
INPUT: Could you please provide reported selectivity ratio for CC(C)(C)n1nnnc1C(c1cccc([N+](=O)[O-])c1)N1CCc2c([nH]c3ccccc23)C1 (centres undefined) ? Thanks!
OUTPUT: 39
